molecular target: EP3 receptor (Homo sapiens); test: CHO cell cAMP assay (forskolin and sulprostone stimulated, HTRF); details: CHO cells; sulprostone 700 nM (EC80) and FSK 2 μM (EC70), 37° C. for 30 minutes; read-out: CHO_cAMP IC50
Sequence (P43115 whole entry): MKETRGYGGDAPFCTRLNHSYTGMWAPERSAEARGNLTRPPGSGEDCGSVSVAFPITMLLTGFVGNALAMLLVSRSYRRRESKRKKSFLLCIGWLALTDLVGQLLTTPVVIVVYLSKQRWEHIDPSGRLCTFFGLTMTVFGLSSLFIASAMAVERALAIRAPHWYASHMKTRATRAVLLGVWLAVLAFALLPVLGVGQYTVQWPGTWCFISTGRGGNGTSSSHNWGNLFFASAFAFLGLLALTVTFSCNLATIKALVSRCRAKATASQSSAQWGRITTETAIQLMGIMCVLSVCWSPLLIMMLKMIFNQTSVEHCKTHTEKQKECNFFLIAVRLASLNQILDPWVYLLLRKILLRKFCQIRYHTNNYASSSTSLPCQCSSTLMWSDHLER
Parameter: IC50. Scope: all listed entries.
Reply numerically in nM, unit not repeated.

# example entries with known answers
molecule	tested target	measurement units	IC50
CC(C)C(CC(=O)Nc1nccs1)c1ccc(-c2ccc3cccc(F)c3c2)[nH]c1=O (stereo not shown)	EP3 receptor (Homo sapiens)	nM	2740
CCN1CCOc2ccc(-c3ccc(C(CC)(CC)CC4OC(=O)NC4=O)c(=O)[nH]3)cc21 (stereo not shown)	EP3 receptor (Homo sapiens)	nM	505
CO/N=C1\NC(=O)C(c2ccc(-c3ccc4cccc(F)c4c3)[nH]c2=O)(C(C)C)N1 (stereo not shown)	EP3 receptor (Homo sapiens)	nM	12

Request the reported IC50 associated with CCn1ncc2c(F)cc(-c3ccc(C(CC)(CC)c4noc(=O)[nH]4)c(=O)[nH]3)cc21
1800
